test system: 422866-222-R5-J1-PDC complex spheroids viability; assay: Anticancer human tumor 422866-222-R5-J1-PDC patient-derived pancreatic adenocarcinoma cell line growth inhibition [RAS]; settings: second compound 0.1 µM; first compound 0.00316 µM; stronger effect = lower value
outcome.measure: viability, T/C (%)
Your answer is read as %, so omit the unit and give the number.

Name the reported viability, T/C value associated with the molecule O=C(c1ccc(F)c(F)c1Nc1ccc(I)cc1F)N1CC(O)([C@@H]2CCCCN2)C1 + C=CC(=O)N1CCN(c2nc(OCC3CCCN3C)nc3c(F)c(-c4nc(N)cc(C)c4C(F)(F)F)c(Cl)cc23)C(C)C1
22.3

Need viability, T/C, item CC(C)n1nc(-c2ccc3oc(N)nc3c2)c2c(N)ncnc21 + C#Cc1c(F)ccc2cc(O)cc(-c3ncc4c(N5CC6CCC(C5)N6)nc(OCC56CCCN5CC(F)C6)nc4c3F)c12
65.4

Can you share its viability, T/C? I mean this molecule: Nc1ccn(C2OC(CO)C(O)C2(F)F)c(=O)n1 (stereo unspecified) + C=CC(=O)N1CCN(c2nc(OCC3CCCN3C)nc3c(F)c(-c4nc(N)cc(C)c4C(F)(F)F)c(Cl)cc23)C(C)C1
21.9

Can you share its viability, T/C? I mean this molecule: C=CC(=O)N1CCN(c2nc(OCC3CCCN3C)nc3c(F)c(-c4nc(N)cc(C)c4C(F)(F)F)c(Cl)cc23)C(C)C1 (stereo unspecified) + C#Cc1c(F)ccc2cc(O)cc(-c3ncc4c(N5CC6CCC(C5)N6)nc(OCC56CCCN5CC(F)C6)nc4c3F)c12
28.4

Look up viability, T/C for this molecule: O=C(c1ccc(F)c(F)c1Nc1ccc(I)cc1F)N1CC(O)([C@@H]2CCCCN2)C1 + C#Cc1c(F)ccc2cc(O)cc(-c3ncc4c(N5CC6CCC(C5)N6)nc(OCC56CCCN5CC(F)C6)nc4c3F)c12
81.9

Reported viability, T/C for CCN1CCN(Cc2ccc(Nc3ncc(F)c(-c4cc(F)c5nc(C)n(C(C)C)c5c4)n3)nc2)CC1 + C=CC(=O)N1CCN(c2nc(OCC3CCCN3C)nc3c(F)c(-c4nc(N)cc(C)c4C(F)(F)F)c(Cl)cc23)C(C)C1 : what is it?
24.4

* * *

Test system: 422866-222-R5-J1-PDC complex spheroids viability
Experiment: Anticancer human tumor 422866-222-R5-J1-PDC cell line growth inhibition [RAS];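 note: spheroids exposed to compounds for 7 days; 100% = DMSO vehicle control viability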
Settings: second compound 3.16 µM; first compound 0.0316 µM; stronger effect = lower value
From the text: RAS pathway inhibitors in Combinations in Complex Spheroids A high-throughput screen of multi-cell type tumor spheroids was designed to identify active combinations of RAS pathway inhibitors and targeted small molecules. Complex spheroids include a stromal component modeled by human endothelial cells (HUVEC) and fibroblasts modeled by human mesenchymal stem cells (MSCs). […] Compounds. […] If the clinical Cmax for an agent had not been determined, the highest concentration tested was 10 microM. […]
outcome.measure: viability, T/C (%)
All answers are understood in %, so give the number only.

For the record CC(C)NCC(C(=O)N1CCN(c2ncnc3c2C(C)CC3O)CC1)c1ccc(Cl)cc1 (centres undefined) + C#Cc1c(F)ccc2cc(O)cc(-c3ncc4c(N5CC6CCC(C5)N6)nc(OCC56CCCN5CC(F)C6)nc4c3F)c12 , what value of viability, T/C is listed for 422866-222-R5-J1-PDC complex spheroids viability?
25.6

Request - read-out viability, T/C | tested on 422866-222-R5-J1-PDC complex spheroids viability | compound C[C@@H](NC(=O)c1ncnc(N)c1Cl)c1ncc(C(=O)Nc2cc(C(F)(F)F)c(Cl)cn2)s1 + C#Cc1c(F)ccc2cc(O)cc(-c3ncc4c(N5CC6CCC(C5)N6)nc(OCC56CCCN5CC(F)C6)nc4c3F)c12
29

Requested read-out viability, T/C, target or system 422866-222-R5-J1-PDC complex spheroids viability, entry C=CC(=O)Nc1cc(Nc2nccc(-c3cn(C)c4ccccc34)n2)c(OC)cc1N(C)CCN(C)C + C#Cc1c(F)ccc2cc(O)cc(-c3ncc4c(N5CC6CCC(C5)N6)nc(OCC56CCCN5CC(F)C6)nc4c3F)c12
27.6

Lab request: please report viability, T/C under test system 422866-222-R5-J1-PDC complex spheroids viability for O=C(c1ccc(F)c(F)c1Nc1ccc(I)cc1F)N1CC(O)([C@@H]2CCCCN2)C1 + C#Cc1c(F)ccc2cc(O)cc(-c3ncc4c(N5CC6CCC(C5)N6)nc(OCC56CCCN5CC(F)C6)nc4c3F)c12
24.6

* * *

I'd appreciate it if you could supply viability, T/C values for the items below.
test system: 422866-222-R5-J1-PDC complex spheroids viability; test: Anticancer human tumor 422866-222-R5-J1-PDC cell line growth inhibition [RAS]; conditions: second compound 0.0316 µM; first compound 1 µM; stronger effect = lower value;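 note: spheroids exposed to compounds for 7 days; 100% = DMSO vehicle control viability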
Express your answer in %, writing the number without its unit.

Can you share its viability, T/C? I mean this compound: CCN1CCN(Cc2ccc(Nc3ncc(F)c(-c4cc(F)c5nc(C)n(C(C)C)c5c4)n3)nc2)CC1 + C#Cc1c(F)ccc2cc(O)cc(-c3ncc4c(N5CC6CCC(C5)N6)nc(OCC56CCCN5CC(F)C6)nc4c3F)c12
69.7

Fill in the blank: the reported viability, T/C of CC(=O)OC12COC1CC(O)C1(C)C(=O)C(O)C3=C(C)C(OC(=O)C(O)C(NC(=O)OC(C)(C)C)c4ccccc4)CC(O)(C(OC(=O)c4ccccc4)C21)C3(C)C (stereo not given) + C#Cc1c(F)ccc2cc(O)cc(-c3ncc4c(N5CC6CCC(C5)N6)nc(OCC56CCCN5CC(F)C6)nc4c3F)c12 is ____.
83.1

# input compound: C[C@@H](NC(=O)c1ncnc(N)c1Cl)c1ncc(C(=O)Nc2cc(C(F)(F)F)c(Cl)cn2)s1 + C=CC(=O)N1CCN(c2nc(OCC3CCCN3C)nc3c(F)c(-c4nc(N)cc(C)c4C(F)(F)F)c(Cl)cc23)C(C)C1 ; wanted: its viability, T/C
27.4

Fill in the blank: the reported viability, T/C of C=CC(=O)N1CCN(c2nc(OCC3CCCN3C)nc3c(F)c(-c4nc(N)cc(C)c4C(F)(F)F)c(Cl)cc23)C(C)C1 (stereo not given) + C#Cc1c(F)ccc2cc(O)cc(-c3ncc4c(N5CC6CCC(C5)N6)nc(OCC56CCCN5CC(F)C6)nc4c3F)c12 is ____.
22

I have this compound here, O=C(c1ccc(F)c(F)c1Nc1ccc(I)cc1F)N1CC(O)([C@@H]2CCCCN2)C1 + C#Cc1c(F)ccc2cc(O)cc(-c3ncc4c(N5CC6CCC(C5)N6)nc(OCC56CCCN5CC(F)C6)nc4c3F)c12 , and I need its recorded viability, T/C.
44.6

* * *

test system: 422866-222-R5-J1-PDC complex spheroids viability; experiment: Anticancer human tumor 422866-222-R5-J1-PDC cell line growth inhibition [RAS]; conditions: second compound 0.3 µM; first compound 0.3 µM; active = viability on the fitted dose curve at most 10% of control; inactive = the rest;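 note: spheroids exposed to compounds for 7 days; 100% = DMSO vehicle control viability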
Write down the outcome that applies. Available outcomes: active, inactive

How did this test come out for CC1(C)CCC(Nc2ncc(C(F)(F)F)c(-c3c[nH]c4c(P(C)(C)=O)c(C#N)ccc34)n2)CN1 (centres undefined) + CCn1c(-c2cc(N3CCN(C)CC3)cnc2C(C)OC)c2c3cc(ccc31)-c1csc(n1)CC(NC(=O)C1CC1C)C(=O)N1CCCC(N1)C(=O)OCC(C)(C)C2 ?
inactive

What did the test return for CCc1c2c(nc3ccc(O)cc13)-c1cc3c(c(=O)n1C2)COC(=O)[C@]3(O)CC + CCn1c(-c2cc(N3CCN(C)CC3)cnc2C(C)OC)c2c3cc(ccc31)-c1csc(n1)CC(NC(=O)C1CC1C)C(=O)N1CCCC(N1)C(=O)OCC(C)(C)C2 ?
active

Given CCc1c2c(nc3ccc(O)cc13)-c1cc3c(c(=O)n1C2)COC(=O)[C@]3(O)CC + CCn1c(-c2cccnc2C(C)OC)c2c3cc(ccc31)N1CCOC(CC(NC(=O)C(C(C)C)N(C)C(=O)C3(F)CCN(C(=O)C#CC(C)(C)N(C)C)CC3)C(=O)N3CCCC(N3)C(=O)OCC(C)(C)C2)C1 , state the outcome it received in this test.
active

Which outcome did this test record for the molecule CC1(C)CCC(Nc2ncc(C(F)(F)F)c(-c3c[nH]c4c(P(C)(C)=O)c(C#N)ccc34)n2)CN1 (centres undefined) + CCn1c(-c2cccnc2C(C)OC)c2c3cc(ccc31)N1CCOC(CC(NC(=O)C(C(C)C)N(C)C(=O)C3(F)CCN(C(=O)C#CC(C)(C)N(C)C)CC3)C(=O)N3CCCC(N3)C(=O)OCC(C)(C)C2)C1 ?
inactive

* * *

Test system: 422866-222-R5-J1-PDC complex spheroids viability
Test: Anticancer human tumor 422866-222-R5-J1-PDC cell line growth inhibition [RAS];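 note: spheroids exposed to compounds for 7 days; 100% = DMSO vehicle control viability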
Settings: second compound 0.003 µM; first compound 0.01 µM; stronger effect = lower value
From the text: RAS pathway inhibitors in Combinations in Complex Spheroids A high-throughput screen of multi-cell type tumor spheroids was designed to identify active combinations of RAS pathway inhibitors and targeted small molecules. Complex spheroids include a stromal component modeled by human endothelial cells (HUVEC) and fibroblasts modeled by human mesenchymal stem cells (MSCs). […] Compounds. […] If the clinical Cmax for an agent had not been determined, the highest concentration tested was 10 microM. […]
What viability, T/C was measured for each of the following?
Answer with a number only, understood to be in %.

Requested field: viability, T/C. Item: Nc1ccn(C2OC(CO)C(O)C2(F)F)c(=O)n1 (configuration not stated) + CCn1c(-c2cc(N3CCN(C)CC3)cnc2C(C)OC)c2c3cc(ccc31)-c1csc(n1)CC(NC(=O)C1CC1C)C(=O)N1CCCC(N1)C(=O)OCC(C)(C)C2
23.5

Return reported viability, T/C; argument: CCN1CCN(Cc2ccc(Nc3ncc(F)c(-c4cc(F)c5nc(C)n(C(C)C)c5c4)n3)nc2)CC1 + CCn1c(-c2cccnc2C(C)OC)c2c3cc(ccc31)N1CCOC(CC(NC(=O)C(C(C)C)N(C)C(=O)C3(F)CCN(C(=O)C#CC(C)(C)N(C)C)CC3)C(=O)N3CCCC(N3)C(=O)OCC(C)(C)C2)C1
24.9
